molecular target: T1, human PD-1 ECD/Fc fusion protein (human); assay: RBA ELISA on huPD-1/Fc; competitor biotin-huPD-L1/Fc
T1 construct: also called huPD-1/Fc; HuPD-1 ECD/Fc
Metric: IC50 (nM)
Provide only the numeric value, understood in nM.

Some binders with recorded IC50:
{"columns": ["Binder", "IC50 / nM"],
 "data": [
  ["mAb718 (antibody, V domains shown, murine hybridoma anti-PD-1 mAb) VH: QVQLQQSGAELVRPGASVTLSCKASGYTFTDYEMHWAKQTPVHGLEWIGVIEPESGGTVYNQKFKGKAKLTADKSSRTAYMELRSLTSEDSAVYYCTREGFNSDHYFDYWGQGTTLTVSS VL: DVLMTQTPLSLPVSLGDQASISCRSSQNIVHSNGNTYLEWYLQKPGQSPKLLIYKVFNRFSGVPDRFSGSGSGTDFTLKISRVEAEDLGVYYCFQGSHVPYTFGGGTKLEIK", 4.19],
  ["mAb719 (antibody, V domains shown, murine hybridoma anti-PD-1 mAb) VH: EVKLVESGGGLVKPGGSLKLSCTASGFSFSSHLMSWVRQTPEKRLEWVAAISGGGADTYYPDSVKGRFTISRDNAKNTLYLQMRSLRSEDTALYYCTRQILAFDSWGQGTTLTVSS VL: DIQMNQSPSSLSVSLGDTITITCHASQNIYVWLNWYQQKPGNIPKLLIYKASNLHTGVPSRFSGGGSGTGFTLTISSLQPEDIATYYCQQGQSYPWTFGGGTKLEIK", 3.39]
]}

Kindly review the next binder as well.
IC50 recorded for this binder, mAb715 (antibody, V domains shown, murine hybridoma anti-PD-1 mAb) VH: EVMLVESGGGLLKPGGSLKLSCAASGFTFSSYAMSWVRQTPEKRLEWVATISGGGRDTYYPDSVKGRFTISRDNAKNTLYLQMTSLRSEDTAFYYCAGQGGTYLFASWGQGTLVTVSA VL: DIVMTQSHKFMSTSVGDSVTITCKASQDVNTAVAWYQQKPGQPPKVLIYWASTRHTGVPDRFTGSGSGTDYTLTISSVQAEDLALYYCQQHYTTPYTFGGGTKLEIK , is 2.91
